assay: Pharmacokinetics evaluation in rats after intragastric administration; conditions: male, rat, plasma, po, 5 mg/kg
Where a name gives a salt, the structure may show the parent alone.
quantity.measured: AUC(0-inf) (ng·h/mL)
All answers are understood in ng·h/mL, so give the number only.

Can you look up the measured AUC(0-inf) of CN(C)C(=O)c1cc2cnc(Nc3ccc(C4=CCNCC4)cn3)nc2n1C1CCCC1.Cl [Example 6] for me? 627

Can you look up the measured AUC(0-inf) of CS(=O)(=O)c1cc2cnc(Nc3ccc(C4=CCNCC4)cn3)nc2n1C1CCCC1.Cl [Example 4] for me? 889

Can you look up the measured AUC(0-inf) of CS(=O)(=O)c1cc2cnc(Nc3ccc(N4CCNCC4)cn3)nc2n1C1CCCC1 [Example 1, hydrochloride] for me? 1960
